assay: Phase 1 multiple ascending dose study, plasma pharmacokinetics in healthy adult males; type: in vivo; settings: male, human, oral, 25 mg, 25 mg once daily, fasted, Day 1, read-out: Tmax (median)
ATTRIBUTE_MEASURED: Tmax (h)
Quick reminder: number only, in h, skip the unit.

Please fill in: Tmax reported for [2H]c1c([2H])c([2H])c2c(C(=O)c3cc(Br)c(O)c(Br)c3)c(C(C)O)oc2c1[2H] (racemic) = 3.5

----------
test: Phase 1 single dose study, plasma pharmacokinetics in healthy adult males; type: in vivo, human; conditions: male, human, plasma, po, 150 mg, 150 mg single oral, fasted, suspension (C4); read-out: AUC0-24 (total)
ATTRIBUTE_MEASURED: AUC(0-t) (µg·h/mL)
Quick reminder: number only, in µg·h/mL, skip the unit.

Please fill in: AUC(0-t) reported for [2H]c1c([2H])c([2H])c2c(C(=O)c3cc(Br)c(O)c(Br)c3)c(C(C)O)oc2c1[2H] (racemic) = 114
